- test_system: Yer064c (UniProt P40041)
- Sequence: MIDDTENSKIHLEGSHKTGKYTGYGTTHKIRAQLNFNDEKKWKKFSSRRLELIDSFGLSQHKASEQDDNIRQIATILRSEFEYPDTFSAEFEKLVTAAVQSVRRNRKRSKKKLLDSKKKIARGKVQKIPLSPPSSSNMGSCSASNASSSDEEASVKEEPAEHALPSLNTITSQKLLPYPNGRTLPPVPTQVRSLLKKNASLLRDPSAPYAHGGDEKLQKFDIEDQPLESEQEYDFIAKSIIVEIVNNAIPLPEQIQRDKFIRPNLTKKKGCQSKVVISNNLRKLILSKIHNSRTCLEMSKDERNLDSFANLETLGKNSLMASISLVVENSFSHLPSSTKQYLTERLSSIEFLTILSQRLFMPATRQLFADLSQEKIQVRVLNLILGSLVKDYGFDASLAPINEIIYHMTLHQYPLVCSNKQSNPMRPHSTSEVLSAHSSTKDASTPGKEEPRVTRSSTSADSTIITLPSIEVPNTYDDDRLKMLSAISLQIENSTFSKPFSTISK
- assay_explanation: PBM E-score (8-mer binding enrichment) (E-score (-0.5 to 0.5)); higher = stronger / more preferred TF binding
- condition: protein concentration: 200 nM; construct: GST-full length
The full ranking holds about 33,000 sequences; the median of “E-score (-0.5 to 0.5)” is about -0.036, and the highest 2% start at about 0.37. This excerpt belongs to a sample that is enriched for the highest values.
Tag: class 1 if measured PBM E-score is not below 0.03, class 0 if it is.

Worked examples, 5 sequences total:
>  <sequence_data>
CATCATAA

>  <assigned_class>
class 1

$$$$
>  <sequence_data>
AATCATAA

>  <assigned_class>
class 1

$$$$
>  <sequence_data>
ATCAACTA

>  <assigned_class>
class 1

$$$$
>  <sequence_data>
ATTCCTAA

>  <assigned_class>
class 1

$$$$
>  <sequence_data>
AGTCGCCG

>  <assigned_class>
class 1

$$$$

I'd appreciate it if you could say whether AGTCACTG has PBM E-score at least equal to 0.03.
class 1

I'd appreciate it if you could say whether TATCATAA has PBM E-score at least equal to 0.03.
class 1

I'd appreciate it if you could say whether CAGTCACA has PBM E-score at least equal to 0.03.
class 1

I'd appreciate it if you could say whether AGTCGCTG has PBM E-score at least equal to 0.03.
class 1

I'd appreciate it if you could say whether CGTATCGA has PBM E-score at least equal to 0.03.
class 0

====

Exercise: for every item that follows, state its recorded PBM E-score.
- test_system: Yer064c (UniProt P40041)
- Sequence: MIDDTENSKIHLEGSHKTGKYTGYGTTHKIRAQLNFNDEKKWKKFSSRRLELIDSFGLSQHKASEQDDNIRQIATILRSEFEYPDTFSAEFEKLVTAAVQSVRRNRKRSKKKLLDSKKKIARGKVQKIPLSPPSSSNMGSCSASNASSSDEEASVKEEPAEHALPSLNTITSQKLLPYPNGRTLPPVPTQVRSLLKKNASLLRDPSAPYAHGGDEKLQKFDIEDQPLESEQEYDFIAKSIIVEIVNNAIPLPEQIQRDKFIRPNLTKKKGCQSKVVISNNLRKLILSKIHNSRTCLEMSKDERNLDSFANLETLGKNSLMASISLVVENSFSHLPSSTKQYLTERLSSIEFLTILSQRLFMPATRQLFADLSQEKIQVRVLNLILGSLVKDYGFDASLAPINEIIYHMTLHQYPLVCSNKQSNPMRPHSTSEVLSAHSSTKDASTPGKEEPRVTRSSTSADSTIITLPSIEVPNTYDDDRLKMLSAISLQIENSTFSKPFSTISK
- assay_explanation: PBM E-score (8-mer binding enrichment) (E-score (-0.5 to 0.5)); higher = stronger / more preferred TF binding
- condition: protein concentration: 200 nM; construct: GST-full length
In all, about 33,000 sequences were measured (“E-score (-0.5 to 0.5)”: median about -0.036, highest 2% from about 0.37 on). The entries come from a sample that favours the highest values as a whole.
Numbers only.

>  <sequence_data>
AGAATCAG

>  <test_system>
Yer064c (UniProt P40041)

>  <PBM E-score>
0.325

$$$$
>  <sequence_data>
AGAATCAC

>  <test_system>
Yer064c (UniProt P40041)

>  <PBM E-score>
0.374

$$$$
>  <sequence_data>
CCAGATCA

>  <test_system>
Yer064c (UniProt P40041)

>  <PBM E-score>
0.058

$$$$
>  <sequence_data>
GTAGAGCA

>  <test_system>
Yer064c (UniProt P40041)

>  <PBM E-score>
-0.0431

$$$$
>  <sequence_data>
AGAGACTA

>  <test_system>
Yer064c (UniProt P40041)

>  <PBM E-score>
0.347

$$$$

Take each entry in turn and give its PBM E-score.
1. AGGATGAT
2. GGAATCCC
3. AATAGTCG
4. AGCGGAAG
5. CTTAGTCA
6. TGACTACA

[0.281, -0.166, 0.346, -0.191, 0.483, 0.476]

Take each entry in turn and give its PBM E-score.
1. AATAGTCT
2. CCTTAGCG

0.297
0.0566

Take each entry in turn and give its PBM E-score.
1. AAGTAGTA
2. ATTAGTGG
3. CGAGACTA

0.0556
0.11
0.37
